test system: XF 498 CNS; assay: NCI tumour cell line growth inhibition, 48 h
Where a SMILES comes first, the peptide text is derived from it.

{"Molecule": "COc1ccc(C(c2ccc(C(C)C)cc(=O)c2O)c2ccc3cccnc3c2O)cc1 (stereo unspecified)", "TGI": "16.4 µM"}
{"Molecule": "CC(C)CC(NC(=O)C(CC(C)C)NC(=O)C(Cc1cnc[nH]1)NC(=O)C(C)NC(=O)C(NC(=O)C(C)NC(=O)C(Cc1c[nH]c2ccccc12)NC(=O)C(CCC(=O)O)NC(=O)C(N)Cc1ccccc1)C(C)C)C(N)=O (stereo unspecified) (H-FEWAVAHLL-NH2; configuration not given here)", "TGI": "> 100 µM"}
{"Molecule": "COc1ccc(NC(=O)C(=O)C2CNC(=O)NC2=O)c(OC)c1 (stereo unspecified)", "TGI": "> 100 µM"}
{"Molecule": "CN=C1Nc2ccc(Cl)cc2C(c2ccccc2)=NN1C", "TGI": "> 100 µM"}
{"Molecule": "NC(=O)N/N=C(\\C(=O)C(=O)Nc1ccc(Cl)c(C(F)(F)F)c1)c1nc2ccc(C(=O)c3ccccc3)cc2[nH]c1=O", "TGI": "64.1 µM"}
{"Molecule": "COC(=O)/C(C#N)=C1\\CCC(O)N1C (stereo unspecified)", "TGI": "> 100 µM"}
{"Molecule": "CC(=O)N(C)c1ccc2c(ccc[n+]2[O-])c1[N+](=O)[O-]", "TGI": "> 100 µM"}
{"Molecule": "O=C(NCc1ccccc1)c1cc2cc(O)c(O)cc2cn1", "TGI": "90.3 µM"}
{"Molecule": "COc1cc(-c2cc(=O)c3ccccc3o2)ccc1N", "TGI": "> 100 µM"}
{"Molecule": "CC1(C)OC(C(N)=O)=C(C(N)=O)O1", "TGI": "> 100 µM"}
{"Molecule": "O=C1CCCC2=C(N1)C(=O)C=CC2=O", "TGI": "> 100 µM"}

Each recorded value in this set is attributed to PubChem BioAssay (NCI).
